tgt: T1, recombinant human activated Factor VII (FVIIa) (human, UniProt P08709 61-212; P08709 213-466, ten glutamate residues of the Gla domain may be gamma-carboxylated)
T1 construct: chains tethered by a disulfide bond; also called Factor VIIa; rFVIIa
T1 sequence 1: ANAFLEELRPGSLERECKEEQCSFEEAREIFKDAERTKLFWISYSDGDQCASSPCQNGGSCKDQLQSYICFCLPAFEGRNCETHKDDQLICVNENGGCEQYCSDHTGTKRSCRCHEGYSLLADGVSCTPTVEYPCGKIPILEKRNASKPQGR
T1 sequence 2: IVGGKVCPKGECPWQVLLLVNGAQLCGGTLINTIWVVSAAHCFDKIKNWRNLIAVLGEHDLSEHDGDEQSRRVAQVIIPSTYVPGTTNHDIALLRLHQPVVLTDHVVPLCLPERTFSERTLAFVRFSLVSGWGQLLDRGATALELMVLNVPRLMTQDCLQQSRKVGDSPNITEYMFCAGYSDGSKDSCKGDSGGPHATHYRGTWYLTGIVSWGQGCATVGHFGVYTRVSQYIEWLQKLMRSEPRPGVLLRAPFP
test.description: BLI (Fortebio)
pKd: −log10 of the molar value.

binder	pKd
VH SEQ ID NO 586 / VL SEQ ID NO 366 (antibody, IgG4, V domains shown, humanized 11F2; IgG4 S228P/kappa) VH: QVQLQESGPGLVKPSDTLSLTCAVSGYSISSDSAWSWIRQPPGKGLEWIGYIQYSGSTNYNPSLKSRVTMSVDTSKNQFSLKLSSVTALDTAVYYCARSVNYYGNSFAVGYWGQGTLVTVSS VL: EIVLTQSPATLSLSPGERATLSCRASQGLSDYLAWYQQKPGEAPRLLIKYASQPATGIPARFSGSGSGTDFTLTISSLEPEDFAVYYCQNGHSFPLTFGQGTKLEIK	7.68
VH SEQ ID NO 546 / VL SEQ ID NO 422 (antibody, IgG4, V domains shown, humanized 11F2; IgG4 S228P/kappa) VH: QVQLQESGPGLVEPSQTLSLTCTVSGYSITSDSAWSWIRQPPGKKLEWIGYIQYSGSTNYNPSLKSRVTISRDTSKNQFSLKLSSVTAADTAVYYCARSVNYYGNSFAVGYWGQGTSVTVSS VL: EIVLTQSPATLSLSPGERATLSCRASQGVSDYLAWYQQKPGQAPRLLIKYASQPATGIPARFSGSGSGTDFTLTISSLEPEDFAVYYCQQGHSFPLTFGQGTKLEIK	7.62
VH SEQ ID NO 594 / VL SEQ ID NO 334 (antibody, IgG4, V domains shown, humanized 11F2; IgG4 S228P/kappa) VH: QVQLQESGPGLVKPSDTLSLTCAVSGYSISSDSAWSWIRQPPGKKLEWIGYIQYSGSTNYNPSLKSRVTMSVDTSKNQFSLKLSSVTALDTAVYYCARSVNYYGNSFAVGPWGQGTLVTVSS VL: EIVLTQSPATLSLSPGERATLSCRASQGISDYLHWYQQKPGQAPRLLIKYASQPATGIPARFSGSGSGTDFTLTISSLEPEDFAVYYCQNGHSFPLTFGQGTKLEIK	7.49
